readout.type: melting point

> print(dat)
                               input.smiles   readout.type       measured
1  Cc1csc(C(=C2CCN(CCCNC(=O)c3ccccc3)CC2)c2ccc(F)cc2)c1.Cl  melting point    95 to 97 °C
2  Cc1csc(C(=C2CCN(CCNC(=O)C3CC3)CC2)c2ccc(F)cc2)c1.O=C(O)C(=O)O  melting point   98 to 101 °C
3  CCc1csc(C(=C2CCN(CCCC(=O)N3CCCC3)CC2)c2ccc(F)cc2)c1.Cl.Cl  melting point       167.4 °C
4  Cc1ccc(C(=O)N(C)CCN2CCC(=C(c3ccc(F)cc3)c3cc(C)cs3)CC2)cc1  melting point  114 to 116 °C
5  Cc1ccc(C(=O)NCCN2CCC(=C(c3ccc(F)cc3)c3cc(C)cs3)CC2)cc1.O=C(O)C(=O)O  melting point  189 to 191 °C
